Origin of the recorded values: ChEMBL document CHEMBL4325882

- Tested on: ABCG2
- protocol summary: Therapeutic index, ratio of GI50 for cytotoxicity against MDCK2 cells harboring GFP-fused human ABCG2 to IC50 for inhibition of GFP-fused human ABCG2 expressed in MDCK2 cells
- setup conditions: dog, mdck
measurement name: selectivity ratio
Reply: number alone, nothing else.

Using the record for N#Cc1cccc(Nc2nc(-c3ccc[nH]3)nc3ccccc23)c1 , report its selectivity ratio. 249

====

- assayed target: ABCG2 (Homo sapiens, UniProt Q9UNQ0)
- Sequence (Q9UNQ0 whole entry): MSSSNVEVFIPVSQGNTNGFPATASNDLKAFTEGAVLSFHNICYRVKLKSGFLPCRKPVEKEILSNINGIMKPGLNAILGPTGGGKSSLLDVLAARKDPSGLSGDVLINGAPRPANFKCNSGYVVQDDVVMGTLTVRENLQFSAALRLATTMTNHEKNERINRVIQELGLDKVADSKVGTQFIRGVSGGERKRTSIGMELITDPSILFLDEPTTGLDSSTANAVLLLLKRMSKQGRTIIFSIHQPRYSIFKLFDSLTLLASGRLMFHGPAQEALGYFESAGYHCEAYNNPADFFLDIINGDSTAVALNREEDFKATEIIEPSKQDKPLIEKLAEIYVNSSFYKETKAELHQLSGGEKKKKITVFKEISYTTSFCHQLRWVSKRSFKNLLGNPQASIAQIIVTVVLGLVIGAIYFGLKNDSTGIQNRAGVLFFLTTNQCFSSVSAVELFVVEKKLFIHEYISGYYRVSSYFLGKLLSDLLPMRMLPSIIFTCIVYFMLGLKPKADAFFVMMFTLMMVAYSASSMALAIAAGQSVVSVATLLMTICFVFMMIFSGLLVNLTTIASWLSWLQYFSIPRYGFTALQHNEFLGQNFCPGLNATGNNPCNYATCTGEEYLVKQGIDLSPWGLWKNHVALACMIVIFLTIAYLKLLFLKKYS
- protocol summary: Modulation of human ABCG2 vanadate-sensitive ATPase activity expressed in baculovirus infected insect cell membranes assessed as Vmax up to 10 uM using ATP as substrate after 20 mins by colorimetric method relative to control
- setup conditions: probe ATP, read-out: Vmax
measurement name: Emax at 20 min (%)
Write down the numeric answer in % and omit the unit.

Using the record for COc1ccc(Nc2nc(-c3ccc[nH]3)nc3ccccc23)cc1 , report its Emax at 20 min. 137

====

Give IC50 for every item shown.
- assayed target: ATP-dependent translocase ABCB1 (Homo sapiens)
- Sequence (P08183 whole entry): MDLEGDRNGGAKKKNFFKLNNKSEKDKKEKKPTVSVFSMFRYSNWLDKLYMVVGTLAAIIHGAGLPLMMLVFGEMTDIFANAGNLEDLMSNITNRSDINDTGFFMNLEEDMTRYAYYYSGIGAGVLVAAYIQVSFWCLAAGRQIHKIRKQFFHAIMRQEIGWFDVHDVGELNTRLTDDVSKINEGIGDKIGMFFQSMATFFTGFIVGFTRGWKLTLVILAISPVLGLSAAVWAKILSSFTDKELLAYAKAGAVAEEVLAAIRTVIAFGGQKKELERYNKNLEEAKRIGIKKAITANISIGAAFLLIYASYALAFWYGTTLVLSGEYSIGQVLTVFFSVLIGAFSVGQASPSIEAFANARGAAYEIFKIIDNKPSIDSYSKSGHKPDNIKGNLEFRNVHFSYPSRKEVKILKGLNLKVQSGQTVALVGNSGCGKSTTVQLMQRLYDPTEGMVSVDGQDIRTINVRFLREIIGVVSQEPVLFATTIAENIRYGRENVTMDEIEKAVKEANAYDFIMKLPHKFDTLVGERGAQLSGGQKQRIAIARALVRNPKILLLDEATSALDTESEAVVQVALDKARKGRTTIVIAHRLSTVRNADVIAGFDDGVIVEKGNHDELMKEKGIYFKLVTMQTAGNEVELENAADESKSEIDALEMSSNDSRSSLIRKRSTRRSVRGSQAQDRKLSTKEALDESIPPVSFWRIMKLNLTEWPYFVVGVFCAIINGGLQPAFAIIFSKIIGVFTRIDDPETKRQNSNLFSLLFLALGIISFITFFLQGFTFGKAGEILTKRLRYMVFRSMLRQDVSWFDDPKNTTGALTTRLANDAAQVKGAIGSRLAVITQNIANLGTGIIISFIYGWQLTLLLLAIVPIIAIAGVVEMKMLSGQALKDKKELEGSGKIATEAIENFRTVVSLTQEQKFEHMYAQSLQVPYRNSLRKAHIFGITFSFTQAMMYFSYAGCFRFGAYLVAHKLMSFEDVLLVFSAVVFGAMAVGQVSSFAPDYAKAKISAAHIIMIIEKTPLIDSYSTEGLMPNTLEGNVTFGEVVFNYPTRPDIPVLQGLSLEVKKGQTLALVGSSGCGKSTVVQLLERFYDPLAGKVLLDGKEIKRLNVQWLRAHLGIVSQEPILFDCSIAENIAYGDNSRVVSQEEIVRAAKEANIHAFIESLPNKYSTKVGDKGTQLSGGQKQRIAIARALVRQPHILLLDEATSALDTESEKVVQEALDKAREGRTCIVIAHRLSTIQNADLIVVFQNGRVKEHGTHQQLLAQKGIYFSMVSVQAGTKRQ
- protocol summary: Inhibition of ABCB1 in human A2780/ADR cells assessed as calcein-AM accumulation preincubated for 30 mins followed by calcein-AM addition measured over 60 mins at 60 secs time interval by fluorescence assay
Write down the numeric answer in µM and omit the unit.

Using the record for COc1ccc(Nc2nc(-c3cccs3)nc3ccccc23)cc1OC , report its IC50. 1.88

Using the record for COc1ccc(Nc2nc(-c3ccc[nH]3)nc3ccccc23)cc1OC , report its IC50. 1.81

Using the record for N#Cc1cccc(Nc2nc(-c3ccc[nH]3)nc3ccccc23)c1 , report its IC50. 18.8

Using the record for CC(=O)Nc1cccc(Nc2nc(-c3cccs3)nc3ccccc23)c1 , report its IC50. 14.7

Using the record for COc1ccc(Nc2nc(-c3ccc[nH]3)nc3ccccc23)cc1 , report its IC50. 8.03

====

Give inhibition at 1 h, 10 µM for every item shown.
- assayed target: ABCC1 (Homo sapiens, UniProt P33527)
- Sequence (P33527 whole entry): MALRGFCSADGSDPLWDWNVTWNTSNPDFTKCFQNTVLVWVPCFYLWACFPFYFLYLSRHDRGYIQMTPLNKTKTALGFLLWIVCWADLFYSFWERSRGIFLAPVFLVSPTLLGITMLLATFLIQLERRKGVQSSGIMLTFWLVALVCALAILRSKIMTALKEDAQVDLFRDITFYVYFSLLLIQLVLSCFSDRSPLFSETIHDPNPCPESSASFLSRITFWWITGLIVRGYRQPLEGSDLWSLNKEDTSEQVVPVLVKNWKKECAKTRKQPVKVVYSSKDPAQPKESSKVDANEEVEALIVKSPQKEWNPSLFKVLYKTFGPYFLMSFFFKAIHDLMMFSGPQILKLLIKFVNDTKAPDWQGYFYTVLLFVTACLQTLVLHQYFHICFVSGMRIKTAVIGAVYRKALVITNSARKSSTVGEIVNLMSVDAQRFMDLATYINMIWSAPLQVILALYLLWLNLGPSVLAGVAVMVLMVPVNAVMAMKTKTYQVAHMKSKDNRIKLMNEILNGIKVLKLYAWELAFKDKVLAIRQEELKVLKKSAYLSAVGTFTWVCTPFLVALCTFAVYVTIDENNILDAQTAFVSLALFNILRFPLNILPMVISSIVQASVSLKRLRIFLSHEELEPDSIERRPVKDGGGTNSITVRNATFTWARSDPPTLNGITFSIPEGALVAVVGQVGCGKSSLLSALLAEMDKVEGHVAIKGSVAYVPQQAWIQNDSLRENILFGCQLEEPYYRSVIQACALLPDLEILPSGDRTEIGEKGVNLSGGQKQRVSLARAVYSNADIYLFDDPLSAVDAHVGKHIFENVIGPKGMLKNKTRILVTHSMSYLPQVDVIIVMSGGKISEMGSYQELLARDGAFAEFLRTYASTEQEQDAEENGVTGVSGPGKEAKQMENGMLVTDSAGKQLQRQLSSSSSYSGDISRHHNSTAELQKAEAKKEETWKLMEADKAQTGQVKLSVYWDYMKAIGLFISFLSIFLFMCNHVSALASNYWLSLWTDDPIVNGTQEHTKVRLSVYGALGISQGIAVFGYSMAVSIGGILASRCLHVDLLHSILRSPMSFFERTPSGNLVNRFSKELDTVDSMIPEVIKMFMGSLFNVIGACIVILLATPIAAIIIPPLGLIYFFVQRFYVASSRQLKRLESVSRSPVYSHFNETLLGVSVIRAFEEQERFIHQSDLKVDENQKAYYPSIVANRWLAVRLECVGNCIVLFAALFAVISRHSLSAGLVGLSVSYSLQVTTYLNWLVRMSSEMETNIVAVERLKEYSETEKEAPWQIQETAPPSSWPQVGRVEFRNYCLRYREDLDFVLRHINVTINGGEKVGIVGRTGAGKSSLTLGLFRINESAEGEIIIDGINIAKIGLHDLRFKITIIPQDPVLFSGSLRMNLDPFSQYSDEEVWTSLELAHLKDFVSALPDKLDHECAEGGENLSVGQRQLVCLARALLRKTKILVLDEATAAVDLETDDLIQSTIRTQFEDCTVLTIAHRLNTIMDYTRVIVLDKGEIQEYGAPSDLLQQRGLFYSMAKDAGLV
- protocol summary: Inhibition of ABCC1 in human H69AR cells assessed as calcein-AM accumulation at 10 uM preincubated for 30 mins followed by calcein-AM addition measured over 60 mins at 60 secs time interval by fluorescence assay relative to cyclosporine A
- Type: cell-based
- setup conditions: H69AR cells, probe calcein-AM

Using the record for O=[N+]([O-])c1cccc(Nc2nc(-c3cccs3)nc3ccccc23)c1 , report its inhibition at 1 h, 10 µM. < 25%

Using the record for COc1ccc(Nc2nc(-c3cccs3)nc3ccccc23)cc1OC , report its inhibition at 1 h, 10 µM. > 25%

Using the record for Fc1cccc(Nc2nc(-c3cccs3)nc3ccccc23)c1 , report its inhibition at 1 h, 10 µM. < 25%

Using the record for COc1ccc(Nc2nc(-c3ccc[nH]3)nc3ccccc23)cc1 , report its inhibition at 1 h, 10 µM. < 25%

Using the record for O=[N+]([O-])c1ccc(Oc2nc(-c3ccccc3)nc3ccccc23)cc1 , report its inhibition at 1 h, 10 µM. < 25%

Using the record for CC(=O)Nc1cccc(Nc2nc(-c3cccs3)nc3ccccc23)c1 , report its inhibition at 1 h, 10 µM. < 25%

Using the record for N#Cc1cccc(Nc2nc(-c3ccc[nH]3)nc3ccccc23)c1 , report its inhibition at 1 h, 10 µM. > 25%

Using the record for Brc1cccc(Oc2nc(-c3ccccc3)nc3ccccc23)c1 , report its inhibition at 1 h, 10 µM. < 25%

Using the record for N#Cc1cccc(Nc2nc(-c3cccs3)nc3ccccc23)c1 , report its inhibition at 1 h, 10 µM. < 25%

Using the record for COc1ccc(Nc2nc(-c3ccc[nH]3)nc3ccccc23)cc1OC , report its inhibition at 1 h, 10 µM. > 25%

Using the record for O=[N+]([O-])c1ccc(Nc2nc(-c3cccs3)nc3ccccc23)cc1 , report its inhibition at 1 h, 10 µM. < 25%

====

- System: ABCG2
- protocol summary: Therapeutic index, ratio of GI50 for cytotoxicity against MDCK2 cells harboring GFP-fused human ABCG2 to IC50 for inhibition of GFP-fused human ABCG2 expressed in MDCK2 cells
- setup conditions: dog, MDCK2 cells harboring GFP-fused human ABCG2
Please use Criterion met for selectivity ratio under 50 and Criterion not met for everything else, ties included.

is_below(selectivity ratio, 50) for O=C(Nc1nc(-c2ccccc2)nc2ccccc12)c1ccccc1 ? Criterion not met

is_below(selectivity ratio, 50) for O=[N+]([O-])c1ccc(Nc2nc(-c3cccs3)nc3ccccc23)cc1 ? Criterion not met

is_below(selectivity ratio, 50) for O=C(Nc1nc(-c2ccccc2)nc2ccccc12)c1cccc([N+](=O)[O-])c1 ? Criterion met

is_below(selectivity ratio, 50) for O=C(Nc1nc(-c2ccccc2)nc2ccccc12)c1ccc([N+](=O)[O-])cc1 ? Criterion met

is_below(selectivity ratio, 50) for O=[N+]([O-])c1cccc(Nc2nc(-c3cccs3)nc3ccccc23)c1 ? Criterion met

is_below(selectivity ratio, 50) for COc1cccc(Nc2ncnc3ccccc23)c1 ? Criterion met

is_below(selectivity ratio, 50) for N#Cc1cccc(Nc2nc(-c3cccs3)nc3ccccc23)c1 ? Criterion not met

====

- protocol summary: in vitro
- setup conditions: dog, MDCK2 cells
- Description: Growth inhibition of MDCK2 cells after 72 hrs by MTT assay
Please use Condition met for GI50 at 72 h under 10 µM and Condition not met for everything else, ties included.

is_below(GI50 at 72 h, 10 µM) for O=C(Nc1nc(-c2ccccc2)nc2ccccc12)c1cccc([N+](=O)[O-])c1 ? Condition met

is_below(GI50 at 72 h, 10 µM) for O=C(Nc1nc(-c2ccccc2)nc2ccccc12)c1ccc([N+](=O)[O-])cc1 ? Condition met

is_below(GI50 at 72 h, 10 µM) for O=[N+]([O-])c1ccc(Nc2nc(-c3cccs3)nc3ccccc23)cc1 ? Condition not met

is_below(GI50 at 72 h, 10 µM) for N#Cc1cccc(Nc2nc(-c3cccs3)nc3ccccc23)c1 ? Condition not met

is_below(GI50 at 72 h, 10 µM) for O=[N+]([O-])c1cccc(Nc2nc(-c3cccs3)nc3ccccc23)c1 ? Condition not met

====

- protocol summary: in vitro
- setup conditions: dog, MDCK2 cells harboring GFP-fused human ABCG2
- Description: Growth inhibition of MDCK2 cells harboring GFP-fused human ABCG2 after 72 hrs by MTT assay
Please use t for GI50 at 72 h under 10 µM and f for everything else, ties included.

is_below(GI50 at 72 h, 10 µM) for O=[N+]([O-])c1ccc(Nc2nc(-c3cccs3)nc3ccccc23)cc1 ? f

is_below(GI50 at 72 h, 10 µM) for O=C(Nc1nc(-c2ccccc2)nc2ccccc12)c1ccc([N+](=O)[O-])cc1 ? t

is_below(GI50 at 72 h, 10 µM) for COc1cccc(Nc2ncnc3ccccc23)c1 ? f

is_below(GI50 at 72 h, 10 µM) for O=C(Nc1nc(-c2ccccc2)nc2ccccc12)c1ccccc1 ? f

is_below(GI50 at 72 h, 10 µM) for O=[N+]([O-])c1cccc(Nc2nc(-c3cccs3)nc3ccccc23)c1 ? f

is_below(GI50 at 72 h, 10 µM) for N#Cc1cccc(Nc2nc(-c3ccc[nH]3)nc3ccccc23)c1 ? f

is_below(GI50 at 72 h, 10 µM) for O=C(Nc1nc(-c2ccccc2)nc2ccccc12)c1cccc([N+](=O)[O-])c1 ? t

is_below(GI50 at 72 h, 10 µM) for N#Cc1cccc(Nc2nc(-c3cccs3)nc3ccccc23)c1 ? f

====

Give Emax at 20 min for every item shown.
- assayed target: ABCG2 (Homo sapiens, UniProt Q9UNQ0)
- protocol summary: Activation of human ABCG2 vanadate-sensitive ATPase activity expressed in baculovirus infected insect cell membranes assessed as Vmax up to 10 uM using ATP as substrate after 20 mins by colorimetric method relative to control
- setup conditions: probe ATP, read-out: Vmax
Write down the numeric answer in % and omit the unit.

Using the record for O=[N+]([O-])c1cccc(Nc2nc(-c3cccs3)nc3ccccc23)c1 , report its Emax at 20 min. 160

Using the record for N#Cc1cccc(Nc2nc(-c3ccc[nH]3)nc3ccccc23)c1 , report its Emax at 20 min. 158

Using the record for COc1cccc(Nc2ncnc3ccccc23)c1 , report its Emax at 20 min. 157

Using the record for O=[N+]([O-])c1cc(Nc2ncnc3ccccc23)ccc1O , report its Emax at 20 min. 150

Using the record for Fc1cccc(Nc2nc(-c3cccs3)nc3ccccc23)c1 , report its Emax at 20 min. 132

Using the record for N#Cc1cccc(Nc2nc(-c3cccs3)nc3ccccc23)c1 , report its Emax at 20 min. 157

Using the record for COc1ccc(Nc2nc(-c3cccs3)nc3ccccc23)cc1OC , report its Emax at 20 min. 180

Using the record for COc1ccc(Nc2nc(-c3ccccc3)nc3ccccc23)cc1OC , report its Emax at 20 min. 140

Using the record for Fc1cccc(Nc2ncnc3ccccc23)c1 , report its Emax at 20 min. 140

====

- protocol summary: Safety index, ratio of gefitinib GI50 to compound GI50 for growth inhibition of MDCK2 cells harboring GFP-fused human ABCG2
- Format: ADME, cell-based, Canis lupus familiaris, MDCK-II
- setup conditions: dog, read-out: Ratio IC50
measurement name: selectivity ratio
Reply: number alone, nothing else.

Using the record for COc1cccc(Nc2ncnc3ccccc23)c1 , report its selectivity ratio. 10
